Target: CDK9 (Homo sapiens, UniProt P50750)
Construct: host or cells: HEK293-CDK9-Hibit
Sequence (P50750 whole entry): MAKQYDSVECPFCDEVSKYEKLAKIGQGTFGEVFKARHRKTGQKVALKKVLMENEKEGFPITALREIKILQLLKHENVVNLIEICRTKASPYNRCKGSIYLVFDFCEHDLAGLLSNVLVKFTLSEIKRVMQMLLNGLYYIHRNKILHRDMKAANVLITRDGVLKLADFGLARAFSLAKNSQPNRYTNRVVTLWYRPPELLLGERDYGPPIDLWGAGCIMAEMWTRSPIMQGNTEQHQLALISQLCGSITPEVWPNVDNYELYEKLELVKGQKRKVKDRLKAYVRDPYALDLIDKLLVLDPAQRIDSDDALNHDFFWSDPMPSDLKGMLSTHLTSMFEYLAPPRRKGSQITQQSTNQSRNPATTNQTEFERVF
Assay: HiBit Assay Protocol for CDK9 (HIBIT protein quantification, degradation)
Type: cell-based
Details: 6 h, HEK293-CDK9-Hibit cells, compound treatment for 6 hours; read-out: CDK9 HIBIT Protein Quantification Maximum
Dmax by entry:
Use % as the unit, but write only the number.

# count of solved cases: 6
{"molecule": "CC1CCCC1N1C(=O)C2(CC2)c2cnc(NC3CCN(S(=O)(=O)N4CC5C4CCN5C(=O)CCCCc4cccc5c4n(C)c(=O)n5C4CCC(=O)NC4=O)CC3)nc21 (stereo not shown) [Compound 98]", "tested target": "CDK9 (Homo sapiens, UniProt P50750)", "Dmax / %": 15}
{"molecule": "CC1CCCC1N1C(=O)C2(CC2)c2cnc(NC3CCN(S(=O)(=O)N4CC5(CCCN(C(=O)CCCCc6ccc7c(c6)n(C)c(=O)n7C6CCC(=O)NC6=O)C5)C4)CC3)nc21 (stereo not shown) [Compound 107]", "tested target": "CDK9 (Homo sapiens, UniProt P50750)", "Dmax / %": 22}
{"molecule": "CC1CCCC1N1C(=O)C2(CC2)c2cnc(NC3CCN(S(=O)(=O)N4CC5(CCCN(C(=O)CCCCCCCCCc6ccc7c(c6)n(C)c(=O)n7C6CCC(=O)NC6=O)C5)C4)CC3)nc21 (stereo not shown) [Compound 87]", "tested target": "CDK9 (Homo sapiens, UniProt P50750)", "Dmax / %": 13}
{"molecule": "CC1CCCC1N1C(=O)C2(CC2)c2cnc(NC3CCN(S(=O)(=O)N4CC5CN(C(=O)CCc6ccc7c(c6)n(C)c(=O)n7C6CCC(=O)NC6=O)CC5C4)CC3)nc21 (stereo not shown) [Compound 55]", "tested target": "CDK9 (Homo sapiens, UniProt P50750)", "Dmax / %": 8}
{"molecule": "CC1CCCC1N1C(=O)C2(CC2)c2cnc(NC3CCN(S(=O)(=O)N4CC5(CCCN(C(=O)CCCc6ccc7c(c6)n(C)c(=O)n7C6CCC(=O)NC6=O)C5)C4)CC3)nc21 (stereo not shown) [Compound 66]", "tested target": "CDK9 (Homo sapiens, UniProt P50750)", "Dmax / %": 8}
{"molecule": "CC1CCCC1N1C(=O)C2(CC2)c2cnc(NC3CCN(S(=O)(=O)N4CCC5(CCN(C(=O)CCc6cccc7c6n(C)c(=O)n7C6CCC(=O)NC6=O)C5)C4)CC3)nc21 (stereo not shown) [Compound 21]", "tested target": "CDK9 (Homo sapiens, UniProt P50750)", "Dmax / %": 28}

Specify measured Dmax for O=C1CCC(N2Cc3cc(N4CCC(N5CC(Oc6cccc(S(=O)(=O)c7ccc(Nc8ncc9c(n8)N([C@@H]8CCC[C@@H](O)C8)C(=O)C98CC8)cc7)c6)C5)CC4)ccc3C2=O)C(=O)N1 (stereo partly shown) [Compound 127] . 49

Report measured Dmax; entry is CC(C)[C@H]1CN([C@H](C)c2cccc(S(=O)(=O)N3CC[C@H](Nc4ncc5c(n4)N([C@@H]4CCC[C@@H](O)C4)C(=O)C54CC4)[C@H](F)C3)c2)CCN1c1ccc2c(N3CCC(=O)NC3=O)nn(C)c2c1 (stereo in doubt) [Compound 203] 18

Item CC1CCCC1N1C(=O)C2(CC2)c2cnc(NC3CCN(S(=O)(=O)C4CCN(CC5CCN(c6ccc7c(c6)n(C)c(=O)n7C6CCC(=O)NC6=O)CC5)C4)CC3)nc21 (stereo not shown) [Compound 140] : provide Dmax 8

Determine from records and report Dmax for C[C@@H](c1cccc(S(=O)(=O)N2CCC(Nc3ncc4c(n3)N([C@@H]3CCC[C@@H](O)C3)C(=O)C43CC3)CC2)c1)N1CCC(c2ccc3c(N4CCC(=O)NC4=O)nn(C)c3c2)CC1 (single isomer, unassigned) [Compound 152] 52

Entry Cn1nc(N2CCC(=O)NC2=O)c2ccc(C3CCN(Cc4ccc(F)c(S(=O)(=O)N5CCC(Nc6ncc7c(n6)N([C@@H]6CCC[C@@H](O)C6)C(=O)C76CC6)CC5)c4)CC3)cc21 [Compound 171] needs its Dmax filled in; supply it. 15

Read the entry CC1CCCC1N1C(=O)C2(CC2)c2cnc(NC3CCN(S(=O)(=O)N4CC5(CCCCN5C(=O)CCCCCc5cccc6c5n(C)c(=O)n6C5CCC(=O)NC5=O)C4)CC3)nc21 (stereo not shown) [Compound 37] and write its reported Dmax. 0

Report measured Dmax; entry is CC1CCCC1N1C(=O)C2(CC2)c2cnc(NC3CCN(S(=O)(=O)N4CCC5(CCN(C(=O)CCCc6cccc7c6n(C)c(=O)n7C6CCC(=O)NC6=O)C5)C4)CC3)nc21 (stereo not shown) [Compound 32] 41

The origin of these recorded values is patent US20260070917A1.
